- procedure_summary: Confirmatory qHTS for Inhibitors of ATXN expression; also: nearly all actives have a fitted effect of over 65% in size
- test_settings: ATXN2-luciferase reporter cells, luminescence, 24 h; series mostly up to 11.5 µM
In all, about 2,100 compounds went through this assay and about 940 (45%) were called active. Another 48% or so got no clear call; they are omitted. Calls follow the shape of the dose curve; as a rule, active = well fitted inhibition curve with a large enough effect; inconclusive = small, poorly fitted or top-dose-only effect; inactive = no such curve, though single readings can be large or run the other way. The set was probably picked from earlier hits. This is one part of the list.
Outcome codes: T = active, F = inactive

compound | class_assignment
CCCOc1ccc(C(=O)NC(=S)NNC(=O)c2c(-c3ccccc3)noc2C)cc1 | F
Cc1cccc(Nc2nc(N)nc(CCl)n2)c1C | F
Cc1[nH]n2c(=O)cc(C(C)(C)C)nc2c1-c1ccccc1 | T
Cc1cc(OCC(=O)NC(C)c2ccccc2)ccc1[N+](=O)[O-] (stereo not given) | F
CC(C)(C)c1ccc(C(=O)N2CCCCCC2=O)cc1 | T
CC(C)C(=O)NC(c1ccccc1)c1cc([N+](=O)[O-])c2cccnc2c1O (stereo not given) | T
CCC(=O)NC(C)c1cc(Cl)c2cccnc2c1O (stereo not given) | T
CCOC(=O)c1c(-c2ccccc2)oc2cc(CN(C)C)c(O)c(CN(C)C)c12 | T
OC(CNCCc1ccccc1)COc1ccc(OCC(O)CNCCc2ccccc2)cc1 (stereo not given) | T
O=[N+]([O-])c1cc(CN2CCN(c3ccccc3)CC2)c(O)c2ncccc12 | T
CC(=O)NC(c1cc(Cl)c2cccnc2c1O)C(C)C (stereo not given) | T
Nc1cccc2nc3ccccc3cc12 | T
CC[n+]1c(C=C2C=C(C)OC(C)=C2)sc2ccccc21 | T
CCC(=O)NC(c1ccc(C)cc1)c1cc([N+](=O)[O-])c2cccnc2c1O (stereo not given) | T
CC(=O)N(C1=C(Cl)C(=O)c2ccccc2C1=O)C1CCCCC1 | T

Just for reference, PubChem BioAssay AID1745848 is where these values come from.
